Data origin, for the record: PubChem BioAssay AID588335

- Assay Protocol: GDH-TPI coupling enzyme inhibitors, primary screen, artefact control for M. tuberculosis FBA inhibitor project, biochemical, absorbance, full deck (AID 588335);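 further: 0% = DMSO wells and 100% = wells lacking the enzyme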
- Conditions Used: GDH-TPI coupled enzyme counterscreen, NADH absorbance; at 4.8 µM
Hit rate of the full screen: of about 360,000 compounds, about 4,500 (1.2%) were called active. No stated cut-off is given here; in the data, active means inhibition above about 30%; inactive means the rest. For the sample, actives were picked, then their nearest neighbours and some compounds at random.
Classes used: 1.0 for active, 0.0 for inactive

> print(dat)
                                    compound  class.assignment
 1  COc1ccc(/C=C/C(=O)Nc2ccc3c(c2)OCCO3)cc1OC               1.0
 2  COc1cc(/C=C/C(=O)OCC(=O)N2CCOCC2)ccc1OCC#N               0.0
 3  O=C1CCCC2=C1C(c1cccs1)n1nc(SCc3ccccc3)nc1N2 (stereo unspecified)               0.0
 4  O=C1NC(c2ccccc2)Cc2ccncc21 (stereo unspecified)               0.0
 5   COc1cccc(/C=C/C(=O)Nc2ccc3c(c2)OCCO3)c1               0.0
 6  CSc1ccc(/C=C/C(=O)NC23CC4CC(CC(C4)C2)C3)cc1               0.0
 7           CC(CO)(CO)NC(=O)c1ccc(=O)[nH]n1               0.0
 8  COc1ccc(S(=O)(=O)N(C)CC(=O)Nc2ccc3c(c2)OCCO3)cc1OC               0.0
 9  C[C@H](NC(=O)C1CCN(S(=O)(=O)c2ccccc2)CC1)C(=O)NCc1ccccc1               0.0
10  COc1ccc(/C=C/C(=O)Nc2ccc(C34CC5CC(CC(O)(C5)C3)C4)cc2)cc1OC               1.0
11  O=C(O)C1CCCN1S(=O)(=O)c1ccc2c(c1)CCC2 (stereo unspecified)               0.0

---

- Assay Protocol: GDH-TPI coupling enzyme inhibitors, primary screen, artefact control for M. tuberculosis FBA inhibitor project, biochemical, absorbance, full deck (AID 588335);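 further: 0% = DMSO wells and 100% = wells lacking the enzyme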
- Conditions Used: GDH-TPI coupled enzyme counterscreen, NADH absorbance; at 4.8 µM
Among all 360,000 compounds or so, about 4,500 (1.2%) were called active. Cut-off read from the data, not from the text of the source: active = inhibition above about 30%; inactive = the rest. The sample as a whole holds a higher share of actives than the screen did.
Outcomes: active, inactive

> print(dat)
                                    compound  class.assignment
 1  COCCn1c(C)cc(C(=O)CN2c3cccc4cccc(c34)S2(=O)=O)c1C          inactive
 2  Cc1cc(/C=N/Nc2ccc([N+](=O)[O-])cn2)c(C)n1-c1cccc(C(=O)O)c1            active
 3  O=C(NCCN1CCN(Cc2ccccc2)CC1)c1cc2c(=O)[nH]c3ccccc3c2s1          inactive
 4  CCN(C[C@H]1N[C@@](CC)(C(=O)OC)[C@H]2C(=O)N(C)C(=O)[C@@H]12)C(=O)Nc1ccc(F)cc1          inactive
 5  Cc1ccc2nc(Nc3ncc4c(n3)CC(C)(C)CC4=O)nc(C)c2c1          inactive
 6  N#C/C(C(=S)Nc1ccccc1)=C1/NN=C(N2CCOCC2)N1c1ccccc1          inactive
 7  Cc1nc2ccc(C(=O)N/N=C/c3ccc(O)cc3)cc2[nH]1            active
 8  Cc1ccc(-c2cc(C(=O)N/N=C/C=C/c3ccco3)c3ccccc3n2)cc1C            active
 9  CCOC(=O)C1=C(O)/C(=C/c2cc(C)n(-c3ccccc3)c2C)N=C1C          inactive
10  COCCNC(=S)N(CCc1c(C)[nH]c2ccc(C)cc12)Cc1cccnc1          inactive
11  CC(/C=N/NC(=O)c1cc(-c2ccc3ccccc3c2)n[nH]1)=C\c1ccco1          inactive
12                   COc1ccccc1C1=CC(=O)CCC1          inactive
13  CCC1Sc2ccc(S(=O)(=O)CCC(=O)NCc3cccs3)cc2NC1=O (centres undefined)          inactive
14  COc1ccccc1/C=C/C=N/NC(=O)CN1CCN(Cc2ccccc2)CC1            active
15       CCSc1nnc(SCC(=O)NNC(=O)c2ccccc2F)s1          inactive
16  COc1ccc(CCNC(=S)N2CCN(S(=O)(=O)c3ccc(F)cc3)CC2)cc1          inactive
17          O=C(N/N=C/c1ccsc1)c1cc(O)cc(O)c1          inactive
18  CCCCC(=O)N(C)c1c(CC)nc2c(OCc3ccc(S(C)(=O)=O)cc3)cccn12          inactive
19       CC1(C)CC(=O)C/C(=N\NC(=O)c2cccs2)C1          inactive
20  CN1CCN(CCCNC(=O)c2cc3c(=O)oc4ccccc4c3s2)CC1            active
21  CCC1CCCCN1CCCNC(=O)c1cc2c(Cl)nc3ccccc3c2s1 (centres undefined)          inactive
22  Cc1ccc2c(c1)C1C[N+](C)(CC(=O)c3ccccc3)CCC1N2C(=O)c1ccccc1Cl (centres undefined)          inactive
23       COc1ccccc1Oc1ccc(N/C=C2/CCCC2=O)cc1            active
24  COc1ccc(CNC(=O)C(NS(=O)(=O)c2cccc3nsnc23)C(C)C)cc1 (centres undefined)          inactive
25  COc1cccc(C(=O)Nc2ccc3nc4n(c(=O)c3c2)CCCCC4)c1          inactive
26  CC(C(=O)Nc1ccc(F)c(F)c1F)N1CCCCCC1 (centres undefined)          inactive
27  Cc1cc(-c2n[nH]c(=S)n2/N=C/C(Br)=C/c2ccccc2)n[nH]1          inactive
28  CC(C)(C)c1cc[n+](-c2[nH]c(=O)sc2/C=N/N=C(\[O-])c2ccccc2)cc1            active
29   COc1ccccc1-n1ccnc(SCC(=O)NC2CCCCC2)c1=O          inactive
30                Cc1cc(N(C)C)cc(C)[n+]1[O-]          inactive
31  COC(=O)Cc1cnc(NC(=O)CSc2nc(C(C)C)cc(=O)[nH]2)s1          inactive
32    CCOC(=O)CN(C(=O)CN1CCOCC1)c1ccc(Br)cc1          inactive
33  O=C(NCCc1ccccn1)c1cc(-c2ccc(Cl)cc2)nc2ccccc12          inactive
34  Cc1c(S(=O)(=O)N2CC(C)CC(C)C2)c(=O)n(C)c(=O)n1C (centres undefined)          inactive
35  Cc1cc[n+](-c2[nH]c(=O)sc2/C=N/NC(=O)c2ccccc2[O-])cc1C          inactive
36             O=C(N/N=C/C=C/c1ccco1)c1cccs1            active
37  OCC(O)C1OCOC(C(O)CO)C1O (centres undefined)          inactive
38  O=C(NC1CCCCC1)C1CCC(CNS(=O)(=O)c2ccccc2)CC1 (centres undefined)          inactive
39  CN1CCN(c2ncc3c(n2)CC(c2ccccc2F)CC3=O)CC1 (centres undefined)          inactive
40  COc1ccc(CCNC(=O)COC(=O)c2ccc[nH]c2=O)cc1          inactive
41      Cc1noc(COc2ccccc2OCc2onc(C)c2Cl)c1Cl          inactive
42  CC(C)CN(CC(C)C)C(=O)CN1c2cccc3cccc(c23)S1(=O)=O          inactive
43  COc1cc(OC)cc(C(=O)Nc2ccc(-c3nc4ccccc4o3)c(O)c2)c1            active
44     Cc1cc(N2CCN(c3ccc(F)cc3)CC2)n2ncnc2n1          inactive
